molecular target: TrkB(h) (Homo sapiens); construct: purchased Caliper Life Sciences; assay: Other kinases, single-concentration inhibition (Table 3); assay type: biochemical; conditions: 1 μM
Sequence (Q16620 32-822): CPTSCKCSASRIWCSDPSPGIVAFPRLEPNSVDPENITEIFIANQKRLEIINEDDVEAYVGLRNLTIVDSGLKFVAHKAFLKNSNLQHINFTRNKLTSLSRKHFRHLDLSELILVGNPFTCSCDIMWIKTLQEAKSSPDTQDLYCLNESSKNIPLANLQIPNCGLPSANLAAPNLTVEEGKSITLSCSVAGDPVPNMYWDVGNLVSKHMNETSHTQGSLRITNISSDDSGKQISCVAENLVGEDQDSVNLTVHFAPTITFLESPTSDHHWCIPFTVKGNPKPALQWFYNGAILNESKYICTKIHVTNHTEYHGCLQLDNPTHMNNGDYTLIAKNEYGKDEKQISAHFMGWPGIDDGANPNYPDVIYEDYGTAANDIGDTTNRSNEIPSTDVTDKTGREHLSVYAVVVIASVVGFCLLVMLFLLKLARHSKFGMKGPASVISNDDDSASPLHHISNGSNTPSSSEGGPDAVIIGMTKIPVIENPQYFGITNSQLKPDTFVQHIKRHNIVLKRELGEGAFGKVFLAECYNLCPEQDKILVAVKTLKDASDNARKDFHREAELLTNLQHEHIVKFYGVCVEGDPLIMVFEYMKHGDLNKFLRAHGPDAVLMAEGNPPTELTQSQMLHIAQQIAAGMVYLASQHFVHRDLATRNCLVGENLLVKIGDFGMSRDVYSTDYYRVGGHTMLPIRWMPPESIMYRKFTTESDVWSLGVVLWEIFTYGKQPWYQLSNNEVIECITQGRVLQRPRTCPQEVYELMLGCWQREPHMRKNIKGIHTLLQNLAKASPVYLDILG
reportedEndpoint: % inhibition TrkB(h) (%)
Respond numerically; units are % and should not be typed.

Form field % inhibition TrkB(h), entry C=C[C@@H]1C[C@@H]2/C=C/COc3cccc(c3)Nc3ncc(F)c(n3)N[C@H]2[C@H]1C(N)=O (single isomer, unassigned) [Example 3] : 83

Form field % inhibition TrkB(h), entry NC(=O)[C@H]1[C@H]2C[C@H]3[C@H]1Nc1nc(ncc1F)Nc1cccc(c1)CSS[C@@H]3C2 [Example 10] : 1

Form field % inhibition TrkB(h), entry CC[C@@H]1C[C@@H]2/C=C\COc3cccc(c3)Nc3ncc(F)c(n3)N[C@H]2[C@H]1C(N)=O (single isomer, unassigned) [Example 6] : 90

----------
target: Aurora A (Homo sapiens); construct: N-terminal GST fusion with full length Aurora A (1-403 amino acids); assay: Aurora A enzyme assay (Caliper LC3000 mobility shift)
Give measured IC50 for each item. Keep answers brief.

Form field IC50, entry O[C@@H]1COc2cccc(c2)Nc2ncc(F)c(n2)NC2CCCC(C2)OC[C@@H]1O (stereo partly shown) : 101 to 1000 nM

Form field IC50, entry "NC(=O)[C@H]1[C@H]2C[C@H]3[C@H]1Nc1nc(ncc1F)Nc1cccc(c1)NC(=O)CN[C@@H]3C2" : 1000 to 6250 nM

Form field IC50, entry "NC(=O)[C@H]1[C@H]2C[C@H]3[C@H]1Nc1nc(ncc1F)Nc1cccc(c1)CCS(=O)(=O)[C@@H]3C2" : 1 to 100 nM

Form field IC50, entry Fc1cnc2nc1NC1CCCC(C1)OC/C=C\COc1cccc(c1)N2 (stereo not shown) : 101 to 1000 nM

----------
biological target: Aurora A (Homo sapiens, UniProt O14965); construct: N-terminal GST fusion with full length Aurora A (1-403 amino acids); assay: Aurora A enzyme assay (Caliper LC3000 mobility shift)
pIC50: −log10 of the molar value.
Give measured pIC50 for each item. Keep answers brief.

# value of pIC50, Aurora A (Homo sapiens, UniProt O14965), item "Nc1ccc(/C=C/NC(=O)[C@H]2[C@H]3C[C@H]4[C@H]2Nc2nc(ncc2F)Nc2cccc(c2)C(=O)CS[C@@H]4C3)cc1" = 6.00 to 7.00

# value of pIC50, Aurora A (Homo sapiens, UniProt O14965), item N#Cc1ccc2cc1NC(=O)CS[C@@H]1C[C@@H]3C[C@H]1[C@@H](Nc1nc(ncc1F)N2)[C@H]3C(N)=O [drawing 223] = 7.00 to 9.00

# value of pIC50, Aurora A (Homo sapiens, UniProt O14965), item "CN1CCN(c2ccc3cc2OCCN[C@@H]2C[C@@H]4C[C@H]2[C@@H](Nc2nc(ncc2F)N3)[C@H]4C(N)=O)CC1" = 6.00 to 7.00

# value of pIC50, Aurora A (Homo sapiens, UniProt O14965), item "CN1CCN(c2ccc3cc2NC(=O)CN[C@@H]2C[C@@H]4C[C@H]2[C@@H](Nc2nc(ncc2F)N3)[C@H]4C(N)=O)CC1" = 7.00 to 9.00

# value of pIC50, Aurora A (Homo sapiens, UniProt O14965), item "NC(=O)[C@H]1[C@H]2C[C@H]3[C@H]1Nc1nc(ncc1F)Nc1cccc(c1)[C@H](OCCCN1CCOCC1)CS[C@@H]3C2" = 6.00 to 7.00

# value of pIC50, Aurora A (Homo sapiens, UniProt O14965), item CN1CCN(c2ccc3cc2C(O)CS(=O)(=O)[C@@H]2C[C@@H]4C[C@H]2[C@@H](Nc2nc(ncc2F)N3)[C@H]4C(N)=O)CC1 (stereo partly drawn) = 7.00 to 9.00

# value of pIC50, Aurora A (Homo sapiens, UniProt O14965), item "CN1CCN(c2ccc3cc2CC(=O)NC[C@@H]2C[C@@H]4C[C@H]2[C@@H](Nc2nc(ncc2F)N3)[C@H]4C(N)=O)CC1" = 6.00 to 7.00

# value of pIC50, Aurora A (Homo sapiens, UniProt O14965), item "NC(=O)[C@H]1[C@H]2C[C@H]3[C@H]1Nc1nc(ncc1F)Nc1cccc(c1)CCC(=O)O[C@@H]3C2" = 6.00 to 7.00

# value of pIC50, Aurora A (Homo sapiens, UniProt O14965), item O=C(O)[C@H]1[C@H]2C[C@H]3[C@H]1Nc1nc(ncc1F)Nc1cccc(c1)OCCS[C@@H]3C2 [drawing 218] = 7.00 to 9.00

----------
Give measured IC50 for each item. Keep answers brief.
target: Aurora B (Homo sapiens, UniProt Q96GD4)
Sequence (Q96GD4 whole entry): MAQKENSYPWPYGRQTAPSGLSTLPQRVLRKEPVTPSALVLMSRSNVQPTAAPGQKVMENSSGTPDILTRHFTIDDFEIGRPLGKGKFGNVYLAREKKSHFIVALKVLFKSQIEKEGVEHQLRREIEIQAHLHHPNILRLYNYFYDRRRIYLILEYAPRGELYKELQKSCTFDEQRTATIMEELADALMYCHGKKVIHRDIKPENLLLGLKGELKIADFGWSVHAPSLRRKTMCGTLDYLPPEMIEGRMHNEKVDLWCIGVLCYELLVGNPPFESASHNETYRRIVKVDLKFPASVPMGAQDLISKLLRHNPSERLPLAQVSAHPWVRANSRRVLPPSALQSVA

Form field IC50, entry NC(=O)[C@H]1[C@H]2C[C@H]3[C@H]1Nc1nc(ncc1F)Nc1cccc(c1)CCS[C@@H]3C2 [drawing 234] : 1 to 100 nM

Form field IC50, entry "Nc1ccc(/C=C/NC(=O)[C@H]2[C@H]3C[C@H]4[C@H]2Nc2nc(ncc2F)Nc2cccc(c2)C(=O)CS[C@@H]4C3)cc1" : 101 to 1000 nM

Form field IC50, entry N#Cc1ccc2cc1NC(=O)CS[C@@H]1C[C@@H]3C[C@H]1[C@@H](Nc1nc(ncc1F)N2)[C@H]3C(N)=O [drawing 223] : 101 to 1000 nM

Form field IC50, entry NC(=O)[C@H]1[C@@H]2CC3CNC(=O)c4cccc(c4)Nc4ncc(F)c(n4)N[C@@H]1[C@@H]3C2 (some centres unmarked) [drawing 259] : 1 to 100 nM

Form field IC50, entry "NC(=O)[C@H]1[C@H]2C[C@H]3[C@H]1Nc1nc(ncc1F)Nc1cccc(c1)CCS(=O)(=O)[C@@H]3C2" : 1 to 100 nM

Form field IC50, entry "NC(=O)[C@H]1[C@H]2C[C@H]3[C@H]1Nc1nc(ncc1F)Nc1ccc4c(c1)CN(CC4)C(=O)CS[C@@H]3C2" : 1 to 100 nM

Form field IC50, entry NC(=O)[C@H]1[C@H]2C[C@H]3[C@H]1Nc1nc(ncc1F)Nc1cccc(c1)C(=O)CS[C@@H]3C2 [drawing 214] : 1 to 100 nM

Form field IC50, entry "CN1CCN(c2ccc3cc2NC(=O)CN[C@@H]2C[C@@H]4C[C@H]2[C@@H](Nc2nc(ncc2F)N3)[C@H]4C(N)=O)CC1" : 1 to 100 nM

----------
Molecular target: Aurora-A(h) (Homo sapiens, UniProt O14965)
Construct: purchased Caliper Life Sciences
Sequence (O14965 whole entry): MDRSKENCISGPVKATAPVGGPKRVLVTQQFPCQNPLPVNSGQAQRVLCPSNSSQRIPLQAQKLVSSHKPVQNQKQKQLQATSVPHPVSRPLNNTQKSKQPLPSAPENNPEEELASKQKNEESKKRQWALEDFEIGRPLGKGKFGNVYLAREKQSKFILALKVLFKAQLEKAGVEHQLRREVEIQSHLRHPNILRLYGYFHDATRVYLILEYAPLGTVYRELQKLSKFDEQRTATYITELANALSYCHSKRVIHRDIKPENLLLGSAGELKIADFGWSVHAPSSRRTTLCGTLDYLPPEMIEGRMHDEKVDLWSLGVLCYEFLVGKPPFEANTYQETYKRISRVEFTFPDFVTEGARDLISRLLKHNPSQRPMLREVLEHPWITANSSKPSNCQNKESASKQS
Assay: Other kinases, single-concentration inhibition (Table 3)
Assay type: biochemical
Settings: 1 μM
Procedure: The Aurora and other kinase assays described here were performed on two Caliper Life Sciences systems, the LC3000 and the Desktop Profiler. These provide data on enzyme activity via measurement of the relative amounts of phosphorylated or unphosphorylated fluorescently labelled substrate peptide at the end of an enzymatic reaction. […] Plates were read in a manner identical to that of the LC3000, and the ratio between substrate and product peaks provided the activity of the enzyme in that well. […]
Give measured % inhibition Aurora-A(h) for each item. Keep answers brief.
Number first, unit second.

Form field % inhibition Aurora-A(h), entry "NC(=O)[C@H]1[C@H]2C[C@H]3[C@H]1Nc1nc(ncc1F)Nc1cccc(c1)C(=O)CS[C@@H]3C2" : 95%

Form field % inhibition Aurora-A(h), entry "NC(=O)[C@H]1[C@H]2C[C@H]3[C@H]1Nc1nc(ncc1F)Nc1cccc(c1)NC(=O)CS[C@@H]3C2" : 1%

Form field % inhibition Aurora-A(h), entry "CN1CCN(c2ccc3cc2OCCS[C@@H]2C[C@@H]4C[C@H]2[C@@H](Nc2nc(ncc2F)N3)[C@H]4C(N)=O)CC1" : 5%

----------
Give measured IC50 for each item. Keep answers brief.
biological target: Aurora A (Homo sapiens, UniProt O14965); construct: N-terminal GST fusion with full length Aurora A (1-403 amino acids); purchased Carna Biosciences 05-101; experiment: Aurora A enzyme assay (Caliper LC3000 mobility shift); type: biochemical

Form field IC50, entry "CN1CCN(c2cc3cc(c2)S(=O)(=O)NC[C@@H]2C[C@@H]4C[C@H]2[C@@H](Nc2nc(ncc2F)N3)[C@H]4C(N)=O)CC1" : 1 to 100 nM

Form field IC50, entry "NC(=O)[C@H]1[C@H]2C[C@H]3[C@H]1Nc1nc(ncc1F)Nc1cccc(c1)[C@H](OCCO)CS[C@@H]3C2" : 1 to 100 nM

Form field IC50, entry "NC(=O)[C@H]1[C@@H]2C[C@H]3CNS(=O)(=O)c4cccc(c4)Nc4ncc(F)c(n4)N[C@@H]1[C@@H]3C2" : 1 to 100 nM

Form field IC50, entry CCC1CC2CCCOc3cccc(c3)Nc3ncc(F)c(n3)N[C@H]2[C@H]1C(N)=O (stereo partly drawn) : 101 to 1000 nM

Form field IC50, entry NC(=O)[C@H]1[C@H]2C[C@H]3[C@H]1Nc1nc(ncc1F)Nc1cccc(c1)CCS[C@@H]3C2 [drawing 234] : 1 to 100 nM

Form field IC50, entry "Fc1cnc2nc1N[C@H]1CCC[C@@H](C1)OCCCCOc1cccc(c1)N2" : 1000 to 6250 nM
